# System tested: human Y5 receptor (Homo sapiens)
# Construct: expressed in transfected cells; host or cells: mouse fibroblast LM(tk-) cells, e.g. L-hY5-7 (ATCC CRL-11995)
# Sequence (Q15761 1-445): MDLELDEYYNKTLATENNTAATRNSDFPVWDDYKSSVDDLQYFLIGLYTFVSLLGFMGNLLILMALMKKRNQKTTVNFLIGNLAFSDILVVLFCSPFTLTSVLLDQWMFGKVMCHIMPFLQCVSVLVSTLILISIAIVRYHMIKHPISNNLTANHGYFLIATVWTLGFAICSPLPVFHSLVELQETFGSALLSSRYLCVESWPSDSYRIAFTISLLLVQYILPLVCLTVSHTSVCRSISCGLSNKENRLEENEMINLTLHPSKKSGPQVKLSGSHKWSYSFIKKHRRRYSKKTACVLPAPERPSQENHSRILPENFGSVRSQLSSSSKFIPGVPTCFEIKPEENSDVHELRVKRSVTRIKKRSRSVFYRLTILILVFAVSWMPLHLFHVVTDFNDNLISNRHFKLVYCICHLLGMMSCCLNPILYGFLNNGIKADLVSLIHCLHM
# Test summary: Radioligand binding to membranes, cloned human Y5 receptor
# Condition parameters: Table 6; read-out: Ki, nM hNPY-5
Metric: Ki (nM)

Example compounds with recorded Ki:
Cc1cccc(F)c1S(=O)(=O)NCCCCCNc1nc2c(s1)CCSc1ccccc1-2	8.3
O=C(NCCCCCNc1nc2c(s1)CCSc1ccccc1-2)c1cccs1	84
CS(=O)(=O)NC[C@H]1CC[C@H](Nc2nc3c(s2)CCSc2ccccc2-3)CC1	6.8

I = O=S(=O)(NCCCCCNc1nc2c(s1)CCSc1ccccc1-2)c1c(Cl)cccc1Cl
II = CCCS(=O)(=O)NCCCCCCNc1nc2c(s1)CCSc1ccccc1-2
III = O=S(=O)(NC[C@H]1CC[C@H](Nc2nc3c(s2)CCSc2ccccc2-3)CC1)c1cccc2ccccc12
Req: Arrange the 3 compounds from largest to smallest Ki. As an answer, provide the labels arranged in the order called for.
Resp: I, III, II

P = CN(C)c1cccc2c(S(=O)(=O)NCCCCCCNc3nc4c(s3)CCSc3ccccc3-4)cccc12
Q = O=S(=O)(NC[C@H]1CC[C@H](Nc2nc3c(s2)CCSc2ccccc2-3)CC1)c1cccc2cccnc12
Req: Given the listed records, identify the one among P and Q with higher Ki. Please reply using the label of the selected record.
Resp: P

Recorded values, source patent US7189720B2.
